- Test system: EC-1, mouse virulent strain of Escherichia coli
- Assay type: cell-based
- experimentalParameters: E. coli EC-1; overnight incubation, lower of duplicate values; trifluoroacetate salt (Example 1 and PMB sulfate)
- Procedure: Minimum bactericidal concentration (MBC, mg/L), minimum inhibitory concentration (MIC, mg/L), and human renal proximal tubule epithelial cell line cytotoxicity concentration 50% (hRPTEC, TC50, micromolar) for compounds of Formula I are listed in Table 2. […] The in vitro antibacterial activity of compounds of Formula I was evaluated by MIC testing according to Clinical and Laboratory Standards Institute (CLSI). […]
Bridge positions count the residues as written; N and C are the ends. Square brackets hold non-standard residues; d marks the D form. Peptide text beside a SMILES is read from it. * marks the point of attachment. Benzoyl(4-Ph) = O=C(c1ccc(-c2ccccc2)cc1)*; X4 = N#Cc1cccc(-c2cc(C(=O)*)ccc2C#N)c1; X21 = N#Cc1cccc(-c2cc(C(=O)*)ccn2)c1; X26 = O=C(c1ccnc(-c2ccc(Cl)cc2)c1)*; X5 = O=C(c1ccnc(-c2cccc(F)c2)c1)*; Dab = NCC[C@H](N)C(=O)O; Dap = NC[C@H](N)C(=O)O
property: EC-1 MIC (µg/mL)
Your answer is read as µg/mL, so omit the unit and give the number.

Recorded EC-1 MIC, per entry:
CC(C)C[C@@H]1NC(=O)[C@@H](Cc2ccccc2)NC(=O)[C@H](CCN)NC(=O)[C@@H](NC(=O)[C@H](CN)NC(=O)[C@@H](NC(=O)[C@H](CCN)NC(=O)c2ccc(C#N)c(-c3cccc(C#N)c3)c2)[C@@H](C)O)CCNC(=O)[C@H]([C@@H](C)O)NC(=O)[C@H](CCN)NC(=O)[C@H](CCN)NC1=O [Example 14] (X4-[Dab]T[Dap][Dab][Dab][dF]L[Dab][Dab]T; lactam 4-C) ... 0.5
CC(C)C[C@@H]1NC(=O)[C@@H](Cc2ccccc2)NC(=O)[C@H](CCN)NC(=O)[C@@H](NC(=O)[C@H](CN)NC(=O)[C@@H](NC(=O)[C@H](CCN)NC(=O)c2ccnc(-c3cccc(C#N)c3)c2)[C@@H](C)O)CCNC(=O)[C@H]([C@@H](C)O)NC(=O)[C@H](CCN)NC(=O)[C@H](CCN)NC1=O [Example 15] (X21-[Dab]T[Dap][Dab][Dab][dF]L[Dab][Dab]T; lactam 4-C) ... 0.125
CC(C)C[C@@H]1NC(=O)[C@@H](Cc2ccccc2)NC(=O)[C@H](CCN)NC(=O)[C@@H](NC(=O)[C@H](CN)NC(=O)[C@@H](NC(=O)[C@H](CCN)NC(=O)c2ccnc(-c3ccc(Cl)cc3)c2)[C@@H](C)O)CCNC(=O)[C@H]([C@@H](C)O)NC(=O)[C@H](CCN)NC(=O)[C@H](CCN)NC1=O [Example 44] (X26-[Dab]T[Dap][Dab][Dab][dF]L[Dab][Dab]T; lactam 4-C) ... 0.25
CC(C)C[C@@H]1NC(=O)[C@@H](Cc2ccccc2)NC(=O)[C@H](CCN)NC(=O)[C@@H](NC(=O)[C@H](CN)NC(=O)[C@@H](NC(=O)[C@H](CCN)NC(=O)c2ccnc(-c3cccc(F)c3)c2)[C@@H](C)O)CCNC(=O)[C@H]([C@@H](C)O)NC(=O)[C@H](CCN)NC(=O)[C@H](CCN)NC1=O [Example 7] (X5-[Dab]T[Dap][Dab][Dab][dF]L[Dab][Dab]T; lactam 4-C) ... 0.125

Look up and report measured EC-1 MIC for this entry: CC(C)C[C@@H]1NC(=O)[C@@H](Cc2ccccc2)NC(=O)[C@H](CCN)NC(=O)[C@@H](NC(=O)[C@H](CN)NC(=O)[C@@H](NC(=O)[C@H](CCN)NC(=O)c2ccc(-c3ccccc3)cc2)[C@@H](C)O)CCNC(=O)[C@H]([C@@H](C)O)NC(=O)[C@H](CCN)NC(=O)[C@H](CCN)NC1=O [Example 45] ({Benzoyl(4-Ph)}-[Dab]T[Dap][Dab][Dab][dF]L[Dab][Dab]T; lactam 4-C)
0.25
